- experimental-target: scSUMO-MBP fusion protein
readout-label: cleavage of the SUMO fusion protein

INSERT INTO measurements (protein, recorded_result) VALUES
  ('Ulp1 from S. cerevisiae (protein) LVPELNEKDDDQVQKALASRENTQLMNRDNIEITVRDFKTLAPRRWLNDTIIEFFMKYIEKSTPNTVAFNSFFYTNLSERGYQGVRRWMKRKKTQIDKLDKIFTPINLNQSHWALGIIDLKKKTIGYVDSLSNGPNAMSFAILTDLQKYVMEESKHTIGEDFDLIHLDCPQQPNGYDCGIYVCMNTLYGSADAPLDFDYKDAIRMRRFIAHLILTDALK', '100 % cleavage');

We now examine a further protein.
Prompt: Quick one: cleavage of the SUMO fusion protein of hsSENP2 (protein) EFPEITEEMEKEIKNVFRNGNQDEVLSEAFRLTITRKDIQTLNHLNWLNDEIINFYMNMLMERSKEKGLPSVHAFNTFFFTKLKTAGYQAVKRWTKKVDVFSVDILLVPIHLGVHWCLAVVDFRKKNITYYDSMGGINNEACRILLQYLKQESIDKKRKEFDTNGWQLFSKKSQEIPQQMNGSDCGMFACKYADCITKDRPINFTQQHMPYFRKRMVWEILHRKLL ?
Completion: 100 % cleavage
